Biological target: muPA (Mus musculus, UniProt P06869)
Construct: To ensure that the uPAs purified from the conditioned media were completely in the two-chain form, they were treated with plasmin; hexa-His (C); made in house; host or cells: HEK293 6E suspension cells
Sequence (P06869 180-433 limits assumed): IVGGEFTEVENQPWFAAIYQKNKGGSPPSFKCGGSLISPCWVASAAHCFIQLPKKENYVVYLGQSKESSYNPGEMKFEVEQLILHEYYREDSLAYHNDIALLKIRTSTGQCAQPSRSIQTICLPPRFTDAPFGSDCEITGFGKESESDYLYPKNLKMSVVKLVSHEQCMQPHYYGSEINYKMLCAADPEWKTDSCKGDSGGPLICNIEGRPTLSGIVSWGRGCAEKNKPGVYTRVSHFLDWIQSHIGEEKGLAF
Sequence (P06869 21-178 partner limits assumed): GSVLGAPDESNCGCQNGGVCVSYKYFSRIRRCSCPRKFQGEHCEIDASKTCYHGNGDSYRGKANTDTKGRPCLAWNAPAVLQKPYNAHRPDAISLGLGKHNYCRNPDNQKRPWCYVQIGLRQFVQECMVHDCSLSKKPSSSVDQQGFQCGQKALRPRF
Assay: Surface plasmon resonance analysis of peptide binding to muPA
Parameters: species or system murine
Settings: SPR, 25°C, pH 7.4
Bridge positions count the residues as written; N and C are the ends. Square brackets hold non-standard residues; d marks the D form. Peptide text beside a SMILES is read from it. Phe(4-guanidino) = N=C(N)Nc1ccc(C[C@H](N)C(=O)O)cc1
experimental.readout: k off, muPA

Ask | Recorded k off, muPA for CC(=O)N[C@H]1CSSC[C@@H](C(N)=O)NC(=O)[C@H](CC(=O)O)NC(=O)[C@H](CC(C)C)NC(=O)[C@H](Cc2ccc(O)cc2)NC(=O)[C@H](CCCNC(=N)N)NC(=O)[C@H](CO)NC(=O)[C@H](Cc2ccc(O)cc2)NC(=O)[C@H](C)NC(=O)[C@@H]2CCCN2C1=O [Mupain-1, CPAYSRYLDC] (Ac-CPAYSRYLDC-NH2; disulfide 1-10) , please?
Reply | 3.64±1.03 (6) s^−1, ×10^2

Ask | Okay, and CC(=O)N[C@H]1CSSC[C@@H](C(N)=O)NC(=O)[C@H](C)NC(=O)[C@H](CC(C)C)NC(=O)[C@H](Cc2ccc(O)cc2)NC(=O)[C@H](CCCNC(=N)N)NC(=O)[C@H](CO)NC(=O)[C@H](Cc2ccc(O)cc2)NC(=O)[C@H](C)NC(=O)[C@@H]2CCCN2C1=O [Mupain-1 D9A, CPAYSRYLAC] (Ac-CPAYSRYLAC-NH2; disulfide 1-10) ?
Reply | 4.01±0.31 (3) s^−1, ×10^2

Ask | Check CC(=O)N[C@H]1CSSC[C@@H](C(N)=O)NC(=O)[C@H](C)NC(=O)[C@H](CC(C)C)NC(=O)[C@H](Cc2ccc(O)cc2)NC(=O)[C@H](Cc2ccc(NC(=N)N)cc2)NC(=O)[C@H](CO)NC(=O)[C@H](Cc2ccc(O)cc2)NC(=O)[C@H](C)NC(=O)[C@@H]2CCCN2C1=O [Mupain-1-12 D9A, CPAYS[4-guanidino-phenyl-alanine]YLAC] (Ac-CPAYS[Phe(4-guanidino)]YLAC-NH2; disulfide 1-10; N-terminus assumed) too.
Reply | 3.94±0.30 (3) s^−1, ×10^2

====

Target: muPA (Mus musculus, UniProt P06869)
Construct: To ensure that the uPAs purified from the conditioned media were completely in the two-chain form, they were treated with plasmin; hexa-His (C); made in house; host or cells: HEK293 6E suspension cells
Assay: Surface plasmon resonance analysis of peptide binding to muPA
Parameters: species or system murine
Conditions: SPR, 25°C, pH 7.4
Bridge positions count the residues as written; N and C are the ends. Square brackets hold non-standard residues; d marks the D form. Peptide text beside a SMILES is read from it. Ala(1-amidino-4-piperidyl) = N=C(N)N1CCC(C[C@H](N)C(=O)O)CC1; Phe(4-guanidino) = N=C(N)Nc1ccc(C[C@H](N)C(=O)O)cc1
experimental.readout: k off, muPA

Ask | For CC(=O)N[C@H]1CSSC[C@@H](C(N)=O)NC(=O)[C@H](CC(=O)O)NC(=O)[C@H](CC(C)C)NC(=O)[C@H](Cc2ccc(O)cc2)NC(=O)[C@H](Cc2ccc(NC(=N)N)cc2)NC(=O)[C@H](CO)NC(=O)[C@H](Cc2ccc(O)cc2)NC(=O)[C@H](C)NC(=O)[C@@H]2CCCN2C1=O [Mupain-1-12, CPAYS[4-guanidino-phenyl-alanine]YLDC] (Ac-CPAYS[Phe(4-guanidino)]YLDC-NH2; disulfide 1-10) , what is its reported k off, muPA?
Reply | 1.92±0.63 (4) s^−1, ×10^2

Ask | Now consider CC(=O)N[C@H]1CSSC[C@@H](C(N)=O)NC(=O)[C@H](CC(=O)O)NC(=O)[C@H](CC(C)C)NC(=O)[C@H](Cc2ccc(O)cc2)NC(=O)[C@H](CC2CCN(C(=N)N)CC2)NC(=O)[C@H](CO)NC(=O)[C@H](Cc2ccc(O)cc2)NC(=O)[C@H](C)NC(=O)[C@@H]2CCCN2C1=O [Mupain-1-16] (Ac-CPAYS[Ala(1-amidino-4-piperidyl)]YLDC-NH2; disulfide 1-10) and answer again.
Reply | 0.671±0.119 (3) s^−1, ×10^2

Ask | Next entry: CC(=O)N[C@H]1CSSC[C@@H](C(N)=O)NC(=O)[C@H](C)NC(=O)[C@H](CC(C)C)NC(=O)[C@H](Cc2ccc(O)cc2)NC(=O)[C@H](CC2CCN(C(=N)N)CC2)NC(=O)[C@H](CO)NC(=O)[C@H](Cc2ccc(O)cc2)NC(=O)[C@H](C)NC(=O)[C@@H]2CCCN2C1=O [Mupain-1-16 D9A] (Ac-CPAYS[Ala(1-amidino-4-piperidyl)]YLAC-NH2; disulfide 1-10)
Reply | 1.22±0.06 (3) s^−1, ×10^2

Source: paper PMC4278837
